Reported Th-T fluorescence of Aβ42 (sheet Fig. 7a), mean of three wells by item:
Assayed target: UniProt:P05067
Test: Th-T (thioflavin-T) assay of Aβ42 aggregation
Format: biochemical
Run parameters: head suffix _20 (concentration 20); reading M78

In the examples that follow, each entry is paired with its recorded Th-T fluorescence of Aβ42 (sheet Fig. 7a), mean of three wells.
Compound | Measured result
C=C1CC[C@@H]2[C@](C)(CC[C@H]3O[C@H](C=C(C)C)C[C@@]23C)[C@@H]1Cc1c(OC)oc(CO)c(C(=O)OC)c1=O [Compound 21] | 0.3679
C=C1CCC2C(C)(CCC=C(C)C)C(O)CCC2(C)C1Cc1c(OC)oc(C)c(C(=O)OC)c1=O (centres unmarked) [Compound 14] | 1.933
C=C1CCC2C(C)(CCC=C(C)C)C(O)CCC2(C)C1Cc1c(OC)oc(CO)c(C)c1=O (centres unmarked) [Compound 12] | 2.114
C=C1CC[C@@H]2[C@](C)(CC[C@H]3O[C@H](C=C(C)C)C[C@@]23C)[C@@H]1Cc1c(OC)oc(CO)c(C)c1=O [Compound 20] | 3.402

// moving on: another record for Th-T fluorescence of Aβ42 (sheet Fig. 7a), mean of three wells
Return the recorded Th-T fluorescence of Aβ42 (sheet Fig. 7a), mean of three wells value; entry: C=C1CCC2C(C)(CCC=C(C)C)C(O)CCC2(C)C1Cc1c(OC)oc(CO)c(C(=O)OC)c1=O (centres unmarked) [Compound 13]
1.0603

###

Assayed target: Aβ42 (Homo sapiens, UniProt P05067)
Sequence (P05067 672-713): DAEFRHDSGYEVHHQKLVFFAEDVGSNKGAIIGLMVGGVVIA
Test: Th-T (thioflavin-T) assay of Aβ42 aggregation
Format: biochemical
Run parameters: reading M27; Supplementary Fig. 47 source data
Assign fulfilled whenever Th-T fluorescence, mean of three wells does not fall below 3; assign not fulfilled whenever it does.

Past entries and their recorded results:
Molecule | Assigned label
C=C1CCC2C(C)(CC(=O)C=C(C)C)C(O)CCC2(C)C1Cc1c(O)c(C)c(C)oc1=O (stereo not drawn) | fulfilled
C=C1CCC2C(C)(CCC=C(C)C)C(=O)CCC2(C)C1Cc1c(O)c(C)c(C)oc1=O (stereo not drawn) | not fulfilled
C=C1CCC2C3(C)CC(C=C(C)C)OC3CCC2(C)C1Cc1c(OC)oc(C)c(C)c1=O (stereo not drawn) | fulfilled
C=C1CC[C@H]2[C@]3(C)C[C@H](C=C(C)C)O[C@H]3CC[C@]2(C)[C@@H]1Cc1c(OC)oc(C)c(C)c1=O | fulfilled
C=C1CC[C@@H]2[C@](C)(CC[C@H]3O[C@H](C=C(C)C)C[C@@]23C)[C@@H]1Cc1c(O)c(C)c(C)oc1=O | not fulfilled

Hello, I need to know if C=C1CC[C@H]2[C@]3(C)C[C@@H](C=C(C)C)O[C@H]3CC[C@]2(C)[C@@H]1Cc1c(OC)oc(CO)c(C)c1=O has measured Th-T fluorescence, mean of three wells not below 3. Thanks!
not fulfilled

Hello, I need to know if C=C1CC[C@H]2[C@]3(C)C[C@@H](C=C(C)C)O[C@H]3CC[C@]2(C)[C@@H]1Cc1c(O)c(C)c(C)oc1=O has measured Th-T fluorescence, mean of three wells not below 3. Thanks!
not fulfilled

Hello, I need to know if C=C1CC[C@H]2[C@]3(C)C[C@H](C=C(C)C)O[C@H]3CC[C@]2(C)[C@@H]1Cc1c(O)c(C)c(C)oc1=O has measured Th-T fluorescence, mean of three wells not below 3. Thanks!
not fulfilled

Hello, I need to know if C=C1CC[C@H]2[C@]3(C)C[C@H](C=C(C)C)O[C@H]3CC[C@]2(C)[C@@H]1Cc1c(OC)oc(CO)c(C)c1=O has measured Th-T fluorescence, mean of three wells not below 3. Thanks!
fulfilled

Hello, I need to know if C=C1CCC2C(C)(CC(=O)C=C(C)C)C(O)CCC2(C)C1Cc1c(OC)oc(C)c(C)c1=O (stereo not drawn) has measured Th-T fluorescence, mean of three wells not below 3. Thanks!
fulfilled

Hello, I need to know if CC(C)=CCC/C(C)=C/CC/C(C)=C/CC/C(C)=C/Cc1c(O)c(C)c(C)oc1=O has measured Th-T fluorescence, mean of three wells not below 3. Thanks!
not fulfilled
